Taken from PubChem BioAssay AID248.

Test system: L1210 leukemia ip in BDF1 mice, survival T/C
Assay Notes: NCI In Vivo Anticancer Drug Screen. Data for tumor model L1210 Leukemia (intraperitoneal) in B6D2F1 (BDF1) mice
Condition Info: endpoint: mean survival time; dose: 10.0 mg/kg/injection; schedule: Q01DX001 (ip); vehicle: saline; higher = longer survival
Toxic doses and inconclusive results are not listed.
What T/C was measured for each of the following?

INSERT INTO assay_data (molecule, measurement_name, value_observed) VALUES
  ('CN1C(=O)C(Br)=C(Br)C1=O', 'T/C', '94 % of control'),
  ('C[N+](C)(Cc1ccccc1)Cc1ccccc1', 'T/C', '98 % of control'),
  ('O=C1NC(=O)C(F)C(O)N1 (configuration not stated)', 'T/C', '101 % of control'),
  ('CN1CCN(C(=O)C(c2ccccc2)C2(O)CCCC2)CC1 (configuration not stated)', 'T/C', '105 % of control'),
  ('CCCCNc1nc2ccccc2[nH]1', 'T/C', '103 % of control'),
  ('CCC1(CC)OC2=C(CC(C#N)(C#N)C(C#N)(C#N)C2)O1', 'T/C', '102 % of control');

Now take the following molecule into account.
Look up T/C of CS(=O)(=O)O.[Cu+2] and report it. 96 % of control

---

Tested on: L1210 leukemia ip in BDF1 mice, survival T/C
Assay Notes: NCI In Vivo Anticancer Drug Screen. Data for tumor model L1210 Leukemia (intraperitoneal) in B6D2F1 (BDF1) mice
Condition Info: endpoint: mean survival time; dose: 400.0 mg/kg/injection; schedule: Q04DX003 (ip); vehicle: Klucel (hydroxypropylcellulose) (HPC); higher = longer survival
Inconclusive results and toxic doses are left out.
Measurement Name: T/C

Below are worked cases with known answers.
INSERT INTO assay_data (compound, target_entity, measurement_name, value_observed) VALUES
  ('O=C(Nc1ccc(Nc2ccncc2)cc1)c1ccc(Nc2ccnc3ccc([N+](=O)[O-])cc23)cc1', 'L1210 leukemia ip in BDF1 mice, survival T/C', 'T/C', '108 % of control'),
  ('CCC(Cl)COP(=O)(OCC(Cl)CC)C(c1ccc(Cl)c(Cl)c1)P(=O)(OCC(Cl)CC)OCC(Cl)CC (stereo not given)', 'L1210 leukemia ip in BDF1 mice, survival T/C', 'T/C', '96 % of control'),
  ('CCCCN1C(=O)C/C(=C2\CC(=O)N(CCCC)C2=O)C1=O', 'L1210 leukemia ip in BDF1 mice, survival T/C', 'T/C', '94 % of control'),
  ('CCCCCCCCCCCCCCCC(=O)OC', 'L1210 leukemia ip in BDF1 mice, survival T/C', 'T/C', '98 % of control');

Now take the following compound into account.
Look up T/C of Cc1ccc(S(=O)(=O)OCCC2CCCCC2COS(=O)(=O)c2ccc(C)cc2)cc1 (stereo not given) and report it. 94 % of control

---

Tested on: L1210 leukemia ip in BDF1 mice, survival T/C
Assay Notes: NCI In Vivo Anticancer Drug Screen. Data for tumor model L1210 Leukemia (intraperitoneal) in B6D2F1 (BDF1) mice
Condition Info: endpoint: mean survival time; dose: 100.0 mg/kg/injection; schedule: Q04DX003 (ip); vehicle: Klucel (hydroxypropylcellulose) (HPC); higher = longer survival
Toxic doses and inconclusive results are not listed.
What T/C was measured for each of the following?

Below are worked cases with known answers.
INSERT INTO results (compound, target_entity, measurement_name, value_observed) VALUES
  ('BrCC1OCC2(CO1)COC(CBr)OC2 (configuration not stated)', 'L1210 leukemia ip in BDF1 mice, survival T/C', 'T/C', '96 % of control'),
  ('O=C(O)CCCCCCCCCCCO', 'L1210 leukemia ip in BDF1 mice, survival T/C', 'T/C', '100 % of control'),
  ('CC(=O)OC1CCCC23CC(CC12)C(C)(C)C3Br (configuration not stated)', 'L1210 leukemia ip in BDF1 mice, survival T/C', 'T/C', '97 % of control'),
  ('CCOC(CN=Cc1ccc(Cl)c(Cl)c1)OCC', 'L1210 leukemia ip in BDF1 mice, survival T/C', 'T/C', '94 % of control'),
  ('NNC(=O)C(Sc1ccccc1)c1ccccc1 (configuration not stated)', 'L1210 leukemia ip in BDF1 mice, survival T/C', 'T/C', '95 % of control'),
  ('O=C(O)C1C=CC(C(=O)O)c2ccccc21 (configuration not stated)', 'L1210 leukemia ip in BDF1 mice, survival T/C', 'T/C', '102 % of control');

Now take the following compound into account.
Look up T/C of O=P(NC12CC3CC(CC(C3)C1)C2)(Oc1ccccc1)Oc1ccccc1 and report it. 101 % of control
